# Target system: Adenosine receptor A2b (Rattus norvegicus) (UniProt P29276)
# Sequence (P29276 whole entry): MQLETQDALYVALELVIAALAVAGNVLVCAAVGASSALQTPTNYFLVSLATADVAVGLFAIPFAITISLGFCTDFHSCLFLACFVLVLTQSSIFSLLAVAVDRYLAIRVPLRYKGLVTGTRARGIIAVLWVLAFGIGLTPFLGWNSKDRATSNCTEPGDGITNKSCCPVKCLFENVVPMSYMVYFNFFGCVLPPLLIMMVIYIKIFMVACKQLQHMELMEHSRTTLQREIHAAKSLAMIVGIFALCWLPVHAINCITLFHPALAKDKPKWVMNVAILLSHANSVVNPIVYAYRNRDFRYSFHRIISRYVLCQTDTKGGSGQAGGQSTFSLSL
# Experiment notes: Displacement of [3H]PSB-603 from recombinant rat adenosine receptor A2b expressed in CHO cell membranes at 1 uM
The entries below come with measured inhibition values attached.
Write down the numeric answer in % and omit the unit.

Examples with answers:
CCCCn1c(=O)c2c(nc3n2CCCN3c2ccc(OCCN(CC)CC)cc2)n(CCCC)c1=O ... 6
CCCCn1c(=O)c2c(nc3n2CCCN3CCc2ccc(OCCN(CC)CC)cc2)n(CCCC)c1=O ... 38
CCCn1c(=O)c2c(nc3n2CCCN3c2ccc(OCCN3CCCC3)cc2)n(CCC)c1=O ... 4
CCN(CC)CCOc1ccc(CCN2CCCn3c2nc2c3c(=O)n(C)c(=O)n2C)cc1 ... -2
CCCCn1c(=O)c2c(nc3n2CCCN3c2ccc(OCCN3CCCC3)cc2)n(CCCC)c1=O ... 15

In plain terms, CCn1c(=O)c2c(nc3n2CCCN3CCc2ccc(O)cc2)n(CC)c1=O has a documented inhibition of 14

Input CCCCn1c(=O)c2c(nc3n2CCCN3c2ccc(OCCN(C)C)cc2)n(CCCC)c1=O . Output inhibition: 9

GET /value?item= CCCCn1c(=O)c2c(nc3n2CCCN3c2ccc(OCCN3CCCCC3)cc2)n(CCCC)c1=O &field=inhibition returns 9
